assayed system: panel of more than 300 wild-type and mutant kinases (313 kinase panel) (Homo sapiens, UniProt Q5VT25)
assay remarks: Kinase profiling in a biochemical assay panel (mobility shift assays and ELISA), %-inhibition at 1 μM; selectivity entropy
applied conditions: kinase MRCKα; 1 μM
Assignment: determine reported %-inhibition of MRCKα for the given compounds.
Units required after the number.

For the 3 compounds below, give their %-inhibition of MRCKα values.
1. COc1cc2nccc(Oc3ccc(NC(=O)C4(C(=O)Nc5ccc(F)cc5)CC4)cc3)c2cc1OC [cabozantinib]
2. CO[C@H]1C[C@@H]2CC[C@@H](C)[C@@](O)(O2)C(=O)C(=O)N2CCCC[C@H]2C(=O)O[C@H]([C@H](C)C[C@@H]2CC[C@@H](OCCO)[C@H](OC)C2)CC(=O)[C@H](C)/C=C(\C)[C@@H](O)[C@@H](OC)C(=O)[C@H](C)C[C@H](C)/C=C/C=C/C=C/1C [everolimus]
3. CCCS(=O)(=O)Nc1ccc(F)c(C(=O)c2c[nH]c3ncc(-c4ccc(Cl)cc4)cc23)c1F [vemurafenib]

Found:
1. 0.575%
2. -6%
3. 0.383%

Count: 3. Required value per item: %-inhibition of MRCKα.
1. COc1cc2c(Nc3ccc(Br)cc3F)ncnc2cc1OCC1CCN(C)CC1 [vandetanib]
2. Cc1ccc(Nc2nccc(N(C)c3ccc4c(C)n(C)nc4c3)n2)cc1S(N)(=O)=O [pazopanib]
3. CC(C)(C)c1nc(-c2cccc(NS(=O)(=O)c3c(F)cccc3F)c2F)c(-c2ccnc(N)n2)s1 [dabrafenib]

Found:
1. -6%
2. -2.17%
3. -1.84%

###

assayed system: panel of more than 300 wild-type and mutant kinases (313 kinase panel) (Homo sapiens)
assay remarks: Kinase profiling in a biochemical assay panel (mobility shift assays and ELISA), %-inhibition at 1 μM; selectivity entropy
applied conditions: kinase EPHA2; compound at 1 μM
measured attribute: %-inhibition of EPHA2 (%)
Answers are plain numbers, in %.

Lookup: Would you kindly share the measured %-inhibition of EPHA2 for CS(=O)(=O)CCNCc1ccc(-c2ccc3ncnc(Nc4ccc(OCc5cccc(F)c5)c(Cl)c4)c3c2)o1 [lapatinib] ?
Found: 1.22

Lookup: Record request: %-inhibition of EPHA2 value, item N#CC[C@H](C1CCCC1)n1cc(-c2ncnc3[nH]ccc23)cn1 [ruxolitinib]
Found: 28

Lookup: Can you share its %-inhibition of EPHA2? I mean this molecule: Cc1ccc(Nc2nccc(N(C)c3ccc4c(C)n(C)nc4c3)n2)cc1S(N)(=O)=O [pazopanib]
Found: 15

Lookup: Look at this molecule and give its reported %-inhibition of EPHA2. COc1cc2nccc(Oc3ccc(NC(=O)C4(C(=O)Nc5ccc(F)cc5)CC4)cc3)c2cc1OC [cabozantinib]
Found: 98

Lookup: Which %-inhibition of EPHA2 is reported for this molecule? CC(C)(C)c1nc(-c2cccc(NS(=O)(=O)c3c(F)cccc3F)c2F)c(-c2ccnc(N)n2)s1 [dabrafenib]
Found: 7

Lookup: // %-inhibition of EPHA2 lookup, key: CC(=O)Nc1cccc(-n2c(=O)n(C3CC3)c(=O)c3c(Nc4ccc(I)cc4F)n(C)c(=O)c(C)c32)c1 [trametinib]
Found: -8.53

State recorded %-inhibition of EPHA2 for all listed molecules.
1. COc1cc2c(Nc3ccc(Br)cc3F)ncnc2cc1OCC1CCN(C)CC1 [vandetanib]
2. O=S(=O)(c1cccc2cnccc12)N1CCCNCC1 [fasudil]
3. CNC(=O)c1cc(Oc2ccc(NC(=O)Nc3ccc(Cl)c(C(F)(F)F)c3)c(F)c2)ccn1 [regorafenib]
4. Cc1ccc(C(=O)Nc2ccc(CN3CCN(C)CC3)c(C(F)(F)F)c2)cc1C#Cc1cnc2cccnn12 [ponatinib]

Found:
1: 86; 2: -7; 3: 88; 4: 102

Batch request: %-inhibition of EPHA2 for each of the following molecules.
1. CCCS(=O)(=O)Nc1ccc(F)c(C(=O)c2c[nH]c3ncc(-c4ccc(Cl)cc4)cc23)c1F [vemurafenib]
2. CO[C@H]1C[C@@H]2CC[C@@H](C)[C@@](O)(O2)C(=O)C(=O)N2CCCC[C@H]2C(=O)O[C@H]([C@H](C)C[C@@H]2CC[C@@H](OC(=O)C(C)(CO)CO)[C@H](OC)C2)CC(=O)[C@H](C)/C=C(\C)[C@@H](O)[C@@H](OC)C(=O)[C@H](C)C[C@H](C)/C=C/C=C/C=C/1C [temsirolimus]

Found:
0.715
-5.58

Lookup: Need %-inhibition of EPHA2, item CO[C@H]1C[C@@H]2CC[C@@H](C)[C@@](O)(O2)C(=O)C(=O)N2CCCC[C@H]2C(=O)O[C@H]([C@H](C)C[C@@H]2CC[C@@H](OCCO)[C@H](OC)C2)CC(=O)[C@H](C)/C=C(\C)[C@@H](O)[C@@H](OC)C(=O)[C@H](C)C[C@H](C)/C=C/C=C/C=C/1C [everolimus]
Found: -4
